B1: POU domain, class 4, transcription factor 1, residues 266 to 347; numbered along this chain, Q01851 (parent)
chain: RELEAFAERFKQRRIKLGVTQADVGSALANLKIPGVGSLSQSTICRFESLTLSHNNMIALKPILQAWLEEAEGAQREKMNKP

variants of: B1; experiment: abundance fitness (aPCA) (normalised: wild type 0, dead -1); higher = more abundant; growth selection in yeast, the domain comes from the species named; conditions: Homo sapiens
Returns the class for an entry based on its abundance fitness. Class ranges: low bin = under -0.06, mid bin = from -0.06 up to -0.01, high bin = -0.01 and over

>  <Variant Id>
G37C

>  <Assigned Label>
mid bin

$$$$
>  <Variant Id>
Q41D

>  <Assigned Label>
high bin

$$$$
>  <Variant Id>
R1C

>  <Assigned Label>
mid bin

$$$$

Q) # bin label for "P82G"
A) mid bin

Q) Try this variant too: "A59W"
A) low bin

Q) Try this variant too: "I33M"
A) mid bin

Q) Try this variant too: "K32D"
A) high bin

Q) Try this variant too: "N30E"
A) mid bin
